Where these numbers come from: patent US20200115430A1

Here the recorded pEC50 (cAMP accumulation), 0% HSA is given for each entry.
Target: T1, human calcitonin receptor (human, UniProt P30988 25-474)
T1 sequence (looked up): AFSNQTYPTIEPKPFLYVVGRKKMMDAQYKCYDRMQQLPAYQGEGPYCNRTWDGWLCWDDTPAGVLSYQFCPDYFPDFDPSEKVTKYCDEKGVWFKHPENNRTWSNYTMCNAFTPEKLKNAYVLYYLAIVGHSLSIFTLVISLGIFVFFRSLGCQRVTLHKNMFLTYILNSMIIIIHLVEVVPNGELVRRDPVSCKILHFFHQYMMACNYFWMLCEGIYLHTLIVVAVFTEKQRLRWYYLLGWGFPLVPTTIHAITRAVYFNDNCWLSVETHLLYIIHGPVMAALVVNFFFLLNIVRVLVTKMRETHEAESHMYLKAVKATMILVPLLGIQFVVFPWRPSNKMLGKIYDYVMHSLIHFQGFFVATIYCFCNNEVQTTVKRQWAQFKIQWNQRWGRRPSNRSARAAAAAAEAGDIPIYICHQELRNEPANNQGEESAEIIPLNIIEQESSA
Test: cell-based or functional assay
Starred links: 1 amine or outer side, 2 acyl side, 3 side chain; linkers in the order of their positions; H or OH if unused. Positions of bridges follow the written chain, without caps; N, C: chain ends. Non-standard residues stand in square brackets, D forms with d. Groups on a side chain read outwards from the residue. Primed or numbered codes have the meaning given here. No end group written: not given here. *: point of attachment. dpeg″ = —[CO(CH2)O(CH2)2O(CH2)NH]— spacer unit, O=C(COCCOCN[*:1])[*:2]; C20 diacid = O=C(O)CCCCCCCCCCCCCCCCCCC(=O)*; C18 diacid = O=C(O)CCCCCCCCCCCCCCCCC(=O)*; γGlu = O=C(O)[C@H](CCC(=O)[*:2])N[*:1]
Give the value in pEC50 but do not write pEC50 after it.

Examples with answers:
- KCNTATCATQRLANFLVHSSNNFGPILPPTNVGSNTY-NH2 (disulfide 2-7; ends not checked) [Pramlintide]: 11.4
- K([dpeg″-dpeg″-γGlu-C18 diacid])CNTSTCATQRLANELHKSSNNFGPILPPTKVGSETY-NH2 (disulfide 2-7) [Compound A113]: 11.3

Check the records and state pEC50 (cAMP accumulation), 0% HSA for K([γGlu-γGlu-dpeg″-dpeg″-γGlu-C20 diacid])CNTSTCATQRLANELHKSSNNFGPILPPTKVGSETY-NH2 (disulfide 2-7) [Compound A112]
10.9

Fill in pEC50 (cAMP accumulation), 0% HSA for record SCNTSTCATQRLANEKHKSSNNFGPILPPTKVGSETY (L-Lys 16 acylated: K*(γGlu-dpeg-dpeg-(γGlu)4-CO(CH2)14CH3); disulfide bridge Cys2-Cys7; C-terminal amide) [Compound A5]
10.8

Please look at this binder and report its pEC50 (cAMP accumulation), 0% HSA: SCNTSTCATQRLAN[dK]([γGlu-γGlu-dpeg″-γGlu-C20 diacid])LHKSSNNFGPILPPTKVGSETY-NH2 (disulfide 2-7) [Compound A100]
10.5
